The following molecules have recorded pKi on Sodium-dependent serotonin transporter (Homo sapiens).
Sequence (P31645 whole entry): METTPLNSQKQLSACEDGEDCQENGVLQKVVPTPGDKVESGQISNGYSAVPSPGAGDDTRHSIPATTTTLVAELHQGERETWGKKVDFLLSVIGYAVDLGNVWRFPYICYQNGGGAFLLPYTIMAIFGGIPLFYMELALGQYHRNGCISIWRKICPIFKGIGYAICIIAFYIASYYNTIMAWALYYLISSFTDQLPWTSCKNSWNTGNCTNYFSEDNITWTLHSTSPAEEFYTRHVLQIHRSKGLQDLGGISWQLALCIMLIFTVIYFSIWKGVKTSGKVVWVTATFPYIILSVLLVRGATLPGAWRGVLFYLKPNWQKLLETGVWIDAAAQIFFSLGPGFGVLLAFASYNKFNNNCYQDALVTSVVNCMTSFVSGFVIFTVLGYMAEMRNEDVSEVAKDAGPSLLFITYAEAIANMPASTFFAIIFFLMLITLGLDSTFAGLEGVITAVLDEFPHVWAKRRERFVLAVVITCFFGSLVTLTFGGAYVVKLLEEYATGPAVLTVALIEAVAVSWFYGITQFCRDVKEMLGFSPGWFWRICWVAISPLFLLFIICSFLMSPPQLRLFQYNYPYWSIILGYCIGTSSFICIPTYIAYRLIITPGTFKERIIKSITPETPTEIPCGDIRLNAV
pKi: −log10 of the molar value.

{"columns": ["MOLECULE", "pKi"],
 "data": [
  ["CC(NC(C)(C)C)C(=O)c1ccc(Cl)cc1 (stereo unspecified)", "< 5.00"],
  ["CC(C)CC(NC(C)(C)C)C(=O)c1cccc(Cl)c1 (stereo unspecified)", 5.21],
  ["CC(NC(C)(C)C)C(=O)c1cc(Cl)cc(Cl)c1 (stereo unspecified)", "< 5.00"],
  ["CC(NC(C)(C)C)C(=O)c1cccc(F)c1 (stereo unspecified)", "< 5.00"],
  ["CC(NC(C)(C)C)C(=O)c1cc(F)cc(F)c1 (stereo unspecified)", "< 5.00"],
  ["Cc1cccc(C(=O)C(C)NC(C)(C)C)c1 (stereo unspecified)", "< 5.00"]
]}

----------
Tested on: Mus musculus
ASSAY COMMENT: Antidepressant activity in ip dosed mouse assessed as stimulation of locomotor activity
Format: functional
Returns the class for an entry based on its ED50. Class ranges: bottom range (below 10 mg/kg), center range (10 mg/kg to below 20 mg/kg), top range (20 mg/kg or more)

{"columns": ["COMPOUND", "SYSTEM TESTED", "GROUP LABEL"],
 "data": [
  ["CC(C)NC(C)C(=O)c1cccc(Cl)c1 (configuration not stated)", "Mus musculus", "bottom range"],
  ["CC(C(=O)c1cccc(Cl)c1)N(C)C (configuration not stated)", "Mus musculus", "bottom range"],
  ["CC(C)CC(NC(C)(C)C)C(=O)c1cccc(Cl)c1 (configuration not stated)", "Mus musculus", "top range"],
  ["CC(NC(C)(C)C)C(=O)c1ccccc1 (configuration not stated)", "Mus musculus", "center range"],
  ["CCCC(NC(C)(C)C)C(=O)c1ccc(Cl)c(Cl)c1 (configuration not stated)", "Mus musculus", "top range"],
  ["CCCCCCC(NC(C)(C)C)C(=O)c1cccc(Cl)c1 (configuration not stated)", "Mus musculus", "bottom range"],
  ["Cc1ccc(C(=O)C(C)NC(C)(C)C)cc1Cl (configuration not stated)", "Mus musculus", "top range"],
  ["CC(NC(C)(C)C)C(=O)c1cccc(Cl)c1 (configuration not stated) [BUPROPION]", "Mus musculus", "bottom range"],
  ["Cc1ccc(C(=O)C(C)NC(C)(C)C)cc1 (configuration not stated)", "Mus musculus", "bottom range"],
  ["CC(C)(C)NC(CCC1CCCCC1)C(=O)c1cccc(Cl)c1 (configuration not stated)", "Mus musculus", "center range"],
  ["CC(C(=O)c1cccc(Cl)c1)N(C)C(C)(C)C (configuration not stated)", "Mus musculus", "center range"],
  ["CCCCCC(NC(C)(C)C)C(=O)c1cccc(Cl)c1 (configuration not stated)", "Mus musculus", "center range"],
  ["CC(NC1CCCC1)C(=O)c1cccc(Cl)c1 (configuration not stated)", "Mus musculus", "center range"],
  ["CC(C(=O)c1cccc(Cl)c1)N1CCCCC1 (configuration not stated)", "Mus musculus", "top range"],
  ["CC(NC(C)(C)C)C(=O)c1cc(F)cc(F)c1 (configuration not stated)", "Mus musculus", "top range"],
  ["CC(NC(C)(C)C)C(=O)c1cccc(Br)c1 (configuration not stated)", "Mus musculus", "center range"],
  ["CCC(NC(C)(C)C)C(=O)c1cccc(Cl)c1 (configuration not stated)", "Mus musculus", "center range"],
  ["CC(NC(C)(C)C)C(=O)c1ccc(Cl)c(Cl)c1 (configuration not stated)", "Mus musculus", "top range"],
  ["Cc1cc(C(=O)C(C)NC(C)(C)C)ccc1Br (configuration not stated)", "Mus musculus", "center range"],
  ["CC(NC(C)(C)C)C(=O)c1ccc(Br)cc1 (configuration not stated)", "Mus musculus", "top range"],
  ["CC(NC(C)(C)C)C(=O)c1cccc(F)c1 (configuration not stated)", "Mus musculus", "center range"],
  ["COC(=O)[C@H]1[C@@H](OC(=O)c2ccccc2)C[C@@H]2CC[C@H]1N2C [COCAINE]", "Mus musculus", "bottom range"],
  ["CC(NC1CC1)C(=O)c1cccc(Cl)c1 (configuration not stated)", "Mus musculus", "center range"],
  ["CC(C)(C)NC1CCc2ccc(Cl)cc2C1=O (configuration not stated)", "Mus musculus", "bottom range"],
  ["CCC(NC(C)(C)C)C(=O)c1ccc(Cl)c(Cl)c1 (configuration not stated)", "Mus musculus", "top range"],
  ["CCCC(NC(C)(C)C)C(=O)c1cccc(Cl)c1 (configuration not stated)", "Mus musculus", "center range"]
]}

Taken from ChEMBL document CHEMBL1156106.
